The following compounds are shown together with reported growth values.
Test system: MOLT-4 leukemia
Assay: NCI-60 one-dose screen, 48 h (100 = growth as untreated, 0 = no growth, -100 = all killed)
Conditions: 10 µM unless noted
Experimental: Growth inhibition of the MOLT-4 human tumor cell line is measured as a screen for anti-cancer activity. Cells are grown in 96 well plates and exposed to the test compound for 48 hours. Compounds are tested at a single concentration, which is 10^-5 M for most compounds. The reported endpoint is percent growth (GI% or GIPRCNT), where numbers from 0 - 100% represent growth inhibition, and numbers from -100% - 0 represent cell death. For example, a value of 40 represents 60% growth inhibition. […]
About 83,000 compounds went through this panel and 20% of them were active in at least one assay; those are over-represented in the sample as a whole. Activity calls are given as the source filed them. The calls were made as follows: active = growth percent below 10; inactive = the rest.
readout name: growth

• CC/C=C\C[C@@H](O)C/C=C1/C(=O)C=C[C@H]1C/C=C\CCCC(=O)OC = -4.62% (active)
• O=C(Oc1cccc2ccccc12)Oc1cccc2ccccc12 = 93.2% (inactive)
• Cc1ccc(/C=C2\Oc3ccc(O)c(O)c3C2=O)cc1 = 29.6% (inactive)
• COc1ccc(C(=O)C(C)C)c2ccccc12 = 97.2% (inactive)
• COc1cccc(OC)c1C(=O)N[C@@H]1C(=O)N2[C@@H]1SC(C)(C)[C@@H]2C(=O)O = 94.6% (inactive)

====

Test system: SF-268 CNS
Assay: NCI-60 one-dose screen, 48 h (100 = growth as untreated, 0 = no growth, -100 = all killed)
Conditions: 10 µM unless noted
The panel holds about 83,000 compounds, 20% with a hit somewhere; the sample as a whole holds those more often.
Class field: derived from growth; ranges low = under 40%, medium = from 40% up to 60%, high = 60% and over

• C[C@]12CC[C@@H]3c4cc(OC(F)F)c(OS(N)(=O)=O)cc4CC[C@H]3[C@@H]1CC[C@@H]2OS(N)(=O)=O = medium
• COc1ccc(C2C(C#N)=C(N)Oc3c2sc2c(C)cccc32)cc1 (stereo unspecified) = medium
• CN(C)c1ccc2nc3ccc(=[N+](C)C)c([N+](=O)[O-])c-3sc2c1 = low
• Cc1cc(=O)oc2cc(OC(=O)CN3CCN(C)CC3)ccc12 = high
• CCCCCCCCCCCCCCCCCCOc1ccccc1CCCOP(=O)(O)OCC[N+](C)(C)C = high
• CCn1cnc2c1c(=O)[nH]c(=O)n2CC1CCC(CNS(=O)(=O)c2ccc(OC3CCOCC3)c(F)c2)CC1 (stereo unspecified) = high
• CCN(CC)CCNC(=O)c1cn2ncnc(Oc3ccc(NC(=O)Nc4ccc(Cl)c(C(F)(F)F)c4)cc3)c2c1C = low
• CN1CCN(c2ccc(-c3cc4c(Nc5ccc(F)c(Cl)c5)ncnn4c3)cc2)CC1 = high
• Cc1nc2ccccc2c(/C=C/c2ccccc2)c1C(=O)/C=C/c1ccc(C(F)(F)F)cc1 = low

====

Tested on: SF-295 CNS
Assay: NCI-60 one-dose screen, 48 h (100 = growth as untreated, 0 = no growth, -100 = all killed)
Conditions: 10 µM unless noted
Experimental: Cells are grown in 96 well plates and exposed to the test compound for 48 hours. Compounds are tested at a single concentration, which is 10^-5 M for most compounds. The reported endpoint is percent growth (GI% or GIPRCNT), where numbers from 0 - 100% represent growth inhibition, and numbers from -100% - 0 represent cell death. For example, a value of 40 represents 60% growth inhibition. A value of 0 means no net growth occurred over the course of the experiment. […]
The panel holds about 83,000 compounds, 20% with a hit somewhere; the sample as a whole holds those more often. Activity calls are given as the source filed them. How the source made its calls: active means growth percent below 10; inactive means the rest.
readout name: growth

• CN(C)c1ccc2nc3ccc(=[N+](C)C)c([N+](=O)[O-])c-3sc2c1 = -1.42% (active)
• C#Cc1cccc(NC(=O)c2ccc(NC(=O)C=C)cc2)c1 = 102% [8.25 µM] (inactive)
• COc1ccc(OC)c(/C=C2\Oc3cc(OCCN4CCC(Cc5ccccc5)CC4)ccc3C2=O)c1 = 102% (inactive)
• Nc1ccc(Sc2ccc([N+](=O)[O-])c3nonc23)cc1 = 96.9% (inactive)

Data credit: PubChem BioAssay (NCI)
